assay_details: NCI Yeast Anticancer Drug Screen. Data for the rad52 strain (AID 147);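 note: 0% = growth of vehicle-treated control cultures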
condition_summary: S. cerevisiae rad52 mutant growth inhibition; at 100.0 µM; stronger effect = higher value
This is part of a sample that, as a whole, favours compounds with a hit. Of some 79,000 tested, about 15% had one in any assay.

- compound: "O=C(/C=C(/c1ccccc1)N1CCCCC1)c1ccccc1"
  growth inhibition [%]: 98
- compound: "NNC(=O)CCc1cc2ccccc2c2ccccc12"
  growth inhibition [%]: 99
- compound: "C[Si](C)(C)/C=C/CCNC(C#N)c1ccccc1 (stereo not given)"
  growth inhibition [%]: 93
- compound: "Cc1ccc(NCCNCCO)c2c(=O)c3cc(O)ccc3sc12"
  growth inhibition [%]: 93
- compound: "COc1ccc2[nH]cc([C@@H]3C4CCC(C4)[C@H]3NCc3cccc(CN[C@H]4C5CCC(C5)[C@@H]4c4c[nH]c5ccc(OC)cc45)c3)c2c1"
  growth inhibition [%]: 98

* * *

assay_details: NCI Yeast Anticancer Drug Screen. Data for the bub3 strain (AID 167)
condition_summary: S. cerevisiae bub3 mutant strain, at 50.0 µM (retest, dose inferred, filed as 5.0), stronger effect = higher value
Compounds without any hit were thinned out: in the full panel of roughly 79,000, 15% have a hit.
Listed here: items and their measured growth inhibition.

- compound: "CC1OC(O[C@H]2/C=C/C=C/C=C/C=C/C=C/C=C/C=C/[C@H](C)[C@@H](O)[C@@H](C)[C@H](C)OC(=O)C[C@H](O)C[C@H](O)CC[C@@H](O)[C@H](O)C[C@H](O)C[C@]3(O)C[C@H](O)[C@@H](C(=O)O)[C@H](C2)O3)C(O)C(N)C1O (some centres undefined)"
  growth inhibition [%]: 99
- compound: "CC(C)/C(Cl)=N\\OC(=O)Nc1ccc(F)cc1F"
  growth inhibition [%]: 97
- compound: "Nc1nc(N)c2nc(CNc3ccc(C(=O)NC(CCC(=O)O)C(=O)O)cc3F)cnc2n1 (centres undefined)"
  growth inhibition [%]: 82
- compound: "NNC(=O)CCc1cc2ccccc2c2ccccc12"
  growth inhibition [%]: 98
- compound: "Cc1cccc2c1nc1ccc(Cl)cc1[n+]2C"
  growth inhibition [%]: 94
- compound: "CN(C)/C=C/c1nnc([N+](=O)[O-])s1"
  growth inhibition [%]: 77
- compound: "O=c1c2ccccc2nc(-c2ccccc2)n1O"
  growth inhibition [%]: 99
- compound: "CNCCCNc1c2ccccc2nc2cccc([N+](=O)[O-])c12"
  growth inhibition [%]: 96
- compound: "O=C1C=C(N2CCN(c3ccccn3)CC2)C(=O)c2c(O)ccc(O)c21"
  growth inhibition [%]: 71

* * *

assay_details: NCI Yeast Anticancer Drug Screen. Data for the CLN2oe strain (AID 163);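 note: 0% = growth of vehicle-only control cultures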
condition_summary: S. cerevisiae CLN2oe strain, at 100.0 µM, stronger effect = higher value
Method: Growth inhibition of yeast strains with defined genetic alterations is measured as a screen for potential anti-cancer activity. Selected strains with alterations in DNA damage repair or cell cycle control were exposed to compounds and growth inhibition was measured relative to vehicle treated controls. The strain used in this assay is CLN2oe
This is part of a sample that, as a whole, favours compounds with a hit. Of some 79,000 tested, about 15% had one in any assay.
Parameter growth inhibition: see the listing below.
observable: growth inhibition (%)

- molecule: "Oc1ccc(SCc2ccc(NCc3ccccc3)cc2)cc1"
  result: 90
- molecule: "CC(C)=NOC(=O)Nc1ccc(Cl)cc1"
  result: 38
- molecule: "CCOC(=O)COc1c(OC)cc(C2C3=C(COC3=O)Oc3cc4c(cc32)OCO4)cc1OC (stereo unspecified)"
  result: 10
- molecule: "O=C(O)Cc1cc(F)ccc1C(=O)O"
  result: 12
- molecule: "Cc1cc(C)nc(NS(=O)(=O)c2ccc(Nc3c4ccccc4nc4c(C(=O)NCCO)cccc34)cc2)n1"
  result: 10
- molecule: "C[C@]12CC[C@H](O)CC1=CC[C@@H]1C2CC[C@]2(C)C(=O)NC(=O)CC12 (stereo partly specified)"
  result: 91
- molecule: "O=C(O)CCCC1CCCc2c1ccc1ccccc21 (stereo unspecified)"
  result: 99
- molecule: "O=C1C(Br)=C(c2ccccc2)O/C1=C/C(=O)c1ccc(Br)cc1"
  result: 18
- molecule: "CCOC(=O)c1cc([N+](=O)[O-])c(Sc2ncnc3nc[nH]c23)c([N+](=O)[O-])c1"
  result: 83
- molecule: "Cc1cc2c(cc1C)[n+]([O-])c(-c1nc3ccccc3s1)c(N)[n+]2[O-]"
  result: 25
- molecule: "OCc1ccccc1Cc1ccccc1"
  result: -7

* * *

assay_details: NCI Yeast Anticancer Drug Screen. Data for the wt2 strain (AID 169);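 note: 0% = growth of vehicle-treated yeast cultures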
condition_summary: S. cerevisiae wt2 strain growth inhibition; at 11.0 µM
This is part of a sample that, as a whole, favours compounds with a hit. Of some 79,000 tested, about 15% had one in any assay. Activity calls are given as the source filed them. No stated cut-off is given here; in the data, active means growth inhibition above about 70%; inactive means the rest.
Possible outcomes: active, inactive

- compound: "Cc1cc2c(cc1C)[n+]([O-])c(-c1nc3ccccc3s1)c(N)[n+]2[O-]"
  group_label: "inactive"
- compound: "O=C(O)CCCC1CCCc2c1ccc1ccccc21 (stereo not drawn)"
  group_label: "inactive"
- compound: "CC(C)(C)C1=CC(=CC=C2C=CN(CCCCCCCCCCCO)C=C2)C=C(C(C)(C)C)C1=O"
  group_label: "active"
- compound: "COc1c(O)c(C=O)c(Br)c(C=O)c1O"
  group_label: "inactive"
- compound: "CNC(=O)OCc1c(COC(=O)NC)c(-c2ccc(Cl)cc2)n2c1CCC2"
  group_label: "inactive"
- compound: "O=[N+]([O-])/C=C/c1cc(Cl)c(/C=C/[N+](=O)[O-])cc1Cl"
  group_label: "inactive"
- compound: "CCCCCCCCCCCC1N=C(N)NC(CCCO)=C1C(=O)OC (stereo not drawn)"
  group_label: "active"
- compound: "Cn1c(=O)c2c(nc(N)n2C2OC(CO)C(O)C2O)n(C)c1=O (stereo not drawn)"
  group_label: "inactive"
- compound: "Cc1c2cc[n+](Cc3ccc(I)cc3)cc2c(C)c2c1[nH]c1ccccc12"
  group_label: "active"
- compound: "S=C1SCN(C2CCCCC2)CN1C1CCCCC1"
  group_label: "inactive"
- compound: "COc1cccc2c1C(=O)c1c(O)c3c(c(O)c1C2=O)CC(O)(C(O)CO)CC3OC1CC(N2CCOCC2)C(O)C(C)O1 (stereo not drawn)"
  group_label: "active"
- compound: "CCC(C)NC1=NCC(C)S1 (stereo not drawn)"
  group_label: "inactive"
- compound: "S=c1sc2c(s1)SCCS2"
  group_label: "inactive"
- compound: "O=C(Oc1ccc2c(c1)CN(Cc1ccccc1)CO2)c1ccccc1"
  group_label: "inactive"
- compound: "CC(C)CN(CC(C)C)C(=O)c1ccc(Cl)c(Cl)c1"
  group_label: "inactive"
- compound: "COc1cccc2c1C(=O)c1c(O)c3c(c(O)c1C2=O)C[C@@](O)(C(C)=O)C[C@@H]3OC1CC(OC(C)=O)C(OC(C)=O)C(C)O1 (stereo partly drawn)"
  group_label: "inactive"
- compound: "CC[N+](CC)(CC)c1ccccc1"
  group_label: "inactive"
- compound: "CCCCCCN(CCCCCC)CC(O)c1ccnc2ccc(OC)cc12 (stereo not drawn)"
  group_label: "inactive"
- compound: "CC(NCCN(C)C)C1CCC2C3CCc4cc(O)ccc4C3CCC12C (stereo not drawn)"
  group_label: "inactive"
- compound: "CC(C)OC(=O)c1ccc(CCc2cc(O)c(Br)cc2O)cc1"
  group_label: "active"
- compound: "Cc1cccc(C(C)(C)C)c1NC(=O)C(C#N)C1=C(Cl)C(=O)c2ccccc2C1=O (stereo not drawn)"
  group_label: "active"
- compound: "Cc1csc(=S)n1OC(=O)NC1CCCCC1"
  group_label: "active"
- compound: "Cc1ccc(NC(c2ccccc2)c2ccc3cccnc3c2O)cc1 (stereo not drawn)"
  group_label: "inactive"

* * *

assay_details: NCI Yeast Anticancer Drug Screen. Data for the rad50 strain (AID 155);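 note: 0% = growth of vehicle-only cultures of the same strain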
condition_summary: S. cerevisiae rad50 strain growth inhibition; at 33.0 µM
The panel holds about 79,000 compounds, 15% with a hit somewhere; the sample as a whole holds those more often. Calls of active or inactive are those of the source. Cut-off read from the data, not from the text of the source: active = growth inhibition above about 70%; inactive = the rest.
Outcomes: active, inactive

- compound: "COc1cc2ccnc(-c3c4ccccc4c(N)c4c(OC)c(OC)ccc34)c2cc1OC"
  group_label: "active"
- compound: "Cc1ccc(NCCNCCO)c2c(=O)c3cc(O)ccc3sc12"
  group_label: "active"
- compound: "Cc1ccc([N+]2=NC(c3ccccc3)=NN(c3ccccc3)C2)cc1"
  group_label: "active"
- compound: "O=C(O)c1ccccc1/C=N/N=C1c2ccccc2-c2ccccc21"
  group_label: "inactive"
- compound: "COc1ccc(C(=O)C(CN(C)C)CN(C)C)cc1"
  group_label: "inactive"
- compound: "CCCOC(=O)C(F)C(Br)C(=O)OCCC (stereo unspecified)"
  group_label: "active"
- compound: "CSc1nc(C)c(CCOC(C)=O)c(N=P(c2ccccc2)(c2ccccc2)c2ccccc2)n1"
  group_label: "inactive"
- compound: "Nc1ncc(-c2ccc(Br)cc2)s1"
  group_label: "active"
- compound: "CC(C)(C)[Si](C)(C)OCC1CCC(n2cnc3c(NC(=O)c4ccccc4)ncnc32)O1 (stereo unspecified)"
  group_label: "inactive"
- compound: "CC(C)OC(=O)Nc1ccc2nc(-c3cscn3)[nH]c2c1"
  group_label: "inactive"
- compound: "N#CC(=Nc1ccccc1F)Nc1ccccc1F"
  group_label: "inactive"

Attribution: PubChem BioAssay (NCI)
